Data provenance: patent US20250152746A1

# Test system: PCSK9 gene
# assay.procedure: PCSK9 gRNA/SpCas9 editing in primary cynomolgus hepatocytes (Tables 2, 22)
# Assay type: cell-based, cynomolgus monkey
# setup.conditions: SpCas9 mRNA MS002, 2500 ng/test article/mL, rep2
In the oligonucleotide strings, read from the 5' end, every base follows the letter of its sugar. An asterisk marks phosphorothioate; unmarked linkages are phosphodiester. Other units and linkages are bracketed, terminal groups are in braces. A string of capitals states the bases alone. m = 2'-O-methyl; r = 2'-OH (RNA)
measured.attribute: Cynomolgus Primary Hepatocytes-% Editing
Your answer should be a number followed by the unit of measure.

-- ask Recorded Cynomolgus Primary Hepatocytes-% Editing for GA395 (nucleic acid) guide: mU*mC*mA*rGrCrUrCrCrArGrGrCrGrGrUrCrCrUrGrGmGrUrUrUrUrArGmAmGmCmUmArGmAmAmAmUmAmGmCmAmArGrUrUmArAmArAmUrAmAmGmGmCmUmArGrUmCmCrGrUrUrAmUmCrArAmCmUmUrGmAmAmAmAmAmGmUmGrGmCmAmCmCmGmAmGmUmCmGmGmUmGmCmU*mU*mU*mUmUmUmU , please?
-- reply 49.53%

-- ask Recorded Cynomolgus Primary Hepatocytes-% Editing for GA404 (nucleic acid) guide: mU*mC*mA*rGrCrUrCrCrArGrGrCrGrGrUrCrCrUrGrGmGrUrUrUrUrArGmAmGmCmUmArGmAmAmAmUmAmGmCmAmArGrUrUmArAmArAmUrAmAmGmGmCmUmArGrUmCmCrGrUrU*rAmUmCrArAmCmUmUrGmAmAmAmAmAmGmUmGrGmCmAmCmCmGmAmGmUmCmGmGmUmGmCmU*mU*mU*mUmUrUmU , please?
-- reply 50.59%

-- ask Recorded Cynomolgus Primary Hepatocytes-% Editing for GA408 (nucleic acid) guide: mU*mC*mA*rGrCrUrCrCrArGrGrCrGrGrUrCrCrUrGrGmGrUrUrUrUrArGmAmGmCmUmAmGmAmAmAmUmAmGmCmAmArGrUrUmArAmArAmUrAmAmGmGmCmUmArGrUmCmCrGrUrUrAmUmCrArAmCmUmUmGmAmAmAmAmAmGmUmGrGmCmAmCmCmGmAmGmUmCmGmGmUmGmCmU*mU*mU*mUmUrUmU , please?
-- reply 46.92%
